The reported numbers originate from PubChem BioAssay AID1239.

experiment: activators of NF-kB expression in neurons, primary screen, cell-based, HTS (AID 1239); conditions: human neuronal cells, NF-kB reporter expression; at 12.5 µM
Among all 190,000 compounds or so, about 3,100 (1.6%) were called active. Cut-off read from the data, not from the text of the source: active = fold change above about 3.3; inconclusive = no clear call, values can overlap the other calls; inactive = below that. Only a selection was taken, and actives are over-represented in it overall.
Outcome codes: yes = active, no = inactive

>>> class_label("O=C(Nc1nc(-c2ccc(-c3ccccc3)cc2)cs1)c1cnccn1")
"no"
>>> class_label("COc1cccc(NC(=S)N(Cc2ccc(C)cc2)Cc2ccccn2)c1")
"no"
>>> class_label("COc1ccc(-c2csc(Nc3ccccn3)n2)cc1")
"yes"
>>> class_label("c1ccc(Nc2nc(-c3ccncc3)cs2)nc1")
"yes"
>>> class_label("COc1ccc(N2CCN(C(=O)/C(C#N)=C/c3ccccc3)CC2)cc1")
"no"
>>> class_label("Cc1nc(-c2ccccc2)sc1C(=O)/C=C/N(C)C")
"no"
>>> class_label("C=CCN(Cc1nc(-c2cc(OC)c3c(c2)OCO3)oc1C)C1CCS(=O)(=O)C1 (stereo unspecified)")
"no"
>>> class_label("O=[N+]([O-])c1cccc(/C([O-])=C(/C(=S)Nc2ccccc2F)[n+]2ccccc2)c1")
"no"
>>> class_label("COc1ccc(C(=O)/C=C/Nc2ccccn2)cc1")
"no"
>>> class_label("Clc1ccc(-c2csc(-c3ccncc3)n2)cc1")
"no"
>>> class_label("O=C(Nc1nc(-c2ccncc2)cs1)C1COc2ccccc2O1 (stereo unspecified)")
"no"
